# Organism: Rattus norvegicus
# measurement notes: DrugMatrix - Regimen: Daily Repeat
# Assay type: toxicity, organism-based, Sprague-Dawley
# Set-up: regimen Daily Repeat, gender Male, age 6-8 weeks
# conditions used: in vivo, po, 0 mg/kg, 120 h, tissue Plasma, route oral GAVAGE, dose level Control, time 5 day, vehicle .5 % CMC
readout type: ASPARTATE AMINOTRANSFERASE (u/L)
Express the result in u/L but write the number alone.

[[record]]
compound = "CC1(C)[C@H]2CC[C@]1(C)C(=O)C2 [(-)-CAMPHOR]"
readout_type = "ASPARTATE AMINOTRANSFERASE"
readout_value = 76.5


# input For CN1CCC[C@@H]1CCO[C@](C)(c1ccccc1)c1ccc(Cl)cc1 [CLEMASTINE] , what is its reported ASPARTATE AMINOTRANSFERASE?
# output 94.67

# input # query: ASPARTATE AMINOTRANSFERASE of entry CCc1ccc(C(=O)C(C)CN2CCCCC2)cc1 (stereo not drawn) [EPERISONE]
# output 83.67

# input Quick one: ASPARTATE AMINOTRANSFERASE for COC(=O)c1ccc(O)cc1 [METHYLPARABEN] ?
# output 74.17

# input # get_value(readout='ASPARTATE AMINOTRANSFERASE', item= `CC(/C=C1\SC(=S)N(CC(=O)O)C1=O)=C\c1ccccc1` )
# output 94.67

# input Query (compound): CCOC(=O)OC(C)OC1=C(C(=O)Nc2ccccn2)N(C)S(=O)(=O)c2ccccc21 (stereo not drawn) [AMPIROXICAM] ; field requested: ASPARTATE AMINOTRANSFERASE
# output 67.67

# input Item under review: COc1c(C)c2c(c(O)c1C/C=C(\C)CCC(=O)OCCN1CCOCC1)C(=O)OC2 [MYCOPHENOLATE MOFETIL] . Reported ASPARTATE AMINOTRANSFERASE?
# output 94.67

# input What does the record list as ASPARTATE AMINOTRANSFERASE for O=C1CCc2cc(OCCCCc3nnnn3C3CCCCC3)ccc2N1 [CILOSTAZOL] ?
# output 65.83

====

# Species on record: Rattus norvegicus
# measurement notes: DrugMatrix - Regimen: Daily Repeat
# Type: toxicity, organism-based, Sprague-Dawley
# Parameters: regimen Daily Repeat, gender Male, age 6-8 weeks
# conditions used: in vivo, po, 0 mg/kg, 72 h, tissue Plasma, route oral GAVAGE, dose level Control, time 3 day, vehicle .5 % CMC
Parameter: CREATININE. Scope: all listed entries.
Reply with just the number (in mg/dL).

Known results for compounds:
[[record]]
compound = "O=c1[nH]cc(F)c(=O)[nH]1"
readout_type = "CREATININE"
readout_value = 0.17

[[record]]
compound = "CC1(C)[C@H]2CC[C@]1(C)C(=O)C2 [(-)-CAMPHOR]"
readout_type = "CREATININE"
readout_value = 0.2


# input Recorded CREATININE for `Brc1ccccc1` , please?
# output 0.25

# input Look at this compound and give its reported CREATININE. `CC(C)[C@H](N)C(=O)OCCOCn1cnc2c(=O)[nH]c(N)nc21`
# output 0.18

# input Quick one: CREATININE for `CN1C(C(=O)Nc2ccccn2)=C(O)c2ccccc2S1(=O)=O` ?
# output 0.52

====

# Species on record: Rattus norvegicus
# measurement notes: DrugMatrix - Regimen: Daily Repeat
# Format: toxicity, organism-based, Sprague-Dawley
# Parameters: regimen Daily Repeat, gender Male, age 6-8 weeks
# conditions used: in vivo, po, 10 mg/kg, 72 h, tissue Blood, route oral GAVAGE, dose level Low, time 3 day, vehicle .5 % CMC
readout type: EOSINOPHIL (%)
Kindly answer with a numeric value in %, unit omitted.

Worked examples follow.
[[record]]
compound = "CC(=O)O[C@]1(C(C)=O)CC[C@H]2[C@@H]3C=C(Cl)C4=CC(=O)CC[C@]4(C)[C@H]3CC[C@@]21C [CHLORMADINONE ACETATE]"
readout_value = 0.33

[[record]]
compound = "COc1c(C)c2c(c(O)c1C/C=C(\\C)CCC(=O)OCCN1CCOCC1)C(=O)OC2 [MYCOPHENOLATE MOFETIL]"
readout_value = 0.67


Now, please, on to the next compound.
# input Bench note: what EOSINOPHIL did `O=C1CN=C(c2ccccc2)c2cc([N+](=O)[O-])ccc2N1` show?
# output 0.33

====

# Organism: Rattus norvegicus
# measurement notes: DrugMatrix - Regimen: Daily Repeat
# Type: toxicity, organism-based, Sprague-Dawley
# Parameters: regimen Daily Repeat, gender Male, age 6-8 weeks
# conditions used: in vivo, po, 0 mg/kg, 72 h, tissue Plasma, route oral GAVAGE, dose level Control, time 3 day, […]
readout type: POTASSIUM

[[record]]
molecule = "COC1=CC(=O)C[C@@H](C)[C@]12Oc1c(Cl)c(OC)cc(OC)c1C2=O [GRISEOFULVIN]"
readout_type = "POTASSIUM"
readout_value = "6.1 MEQ/L"

[[record]]
molecule = "C=CCN [ALLYLAMINE]"
readout_type = "POTASSIUM"
readout_value = "6.13 MEQ/L"


# input Would you kindly share the measured POTASSIUM for CCCCCCCCCc1ccc(O)cc1 [4-NONYLPHENOL] ?
# output 5.91 MEQ/L

====

Catalogue of ABSOLUTE LYMPHOCYTE values
# Species: Rattus norvegicus
# measurement notes: DrugMatrix - Regimen: Daily Repeat
# Type: toxicity, organism-based, Sprague-Dawley
# Set-up: regimen Daily Repeat, gender Male, age 6-8 weeks
# conditions used: in vivo, po, 0 mg/kg, 72 h, tissue Blood, route oral GAVAGE, dose level Control, time 3 day, vehicle 100 % WATER

Here is how some compounds turned out for ABSOLUTE LYMPHOCYTE.
[[record]]
compound = "NCC1(CC(=O)O)CCCCC1"
readout_type = "ABSOLUTE LYMPHOCYTE"
readout_value = "11674.67 CELLS/uL"

[[record]]
compound = "Clc1ccc(C(c2ccccc2Cl)C(Cl)Cl)cc1 (stereo not given)"
readout_type = "ABSOLUTE LYMPHOCYTE"
readout_value = "11823.5 CELLS/uL"

[[record]]
compound = "CC1COc2c(N3CCN(C)CC3)c(F)cc3c(=O)c(C(=O)O)cn1c23 (stereo not given)"
readout_type = "ABSOLUTE LYMPHOCYTE"
readout_value = "10386.33 CELLS/uL"

[[record]]
compound = "C[C@]12Cc3c[nH]nc3C[C@@H]1CC[C@@H]1[C@@H]2CC[C@@]2(C)[C@H]1CC[C@]2(C)O"
readout_type = "ABSOLUTE LYMPHOCYTE"
readout_value = "9305.83 CELLS/uL"

[[record]]
compound = "Fc1ccc([C@@H]2CCNC[C@H]2COc2ccc3c(c2)OCO3)cc1"
readout_type = "ABSOLUTE LYMPHOCYTE"
readout_value = "9305.83 CELLS/uL"


# input Which ABSOLUTE LYMPHOCYTE reading was recorded for the compound `Nc1ccc(S(=O)(=O)Nc2ccnn2-c2ccccc2)cc1` ?
# output 12371.67 CELLS/uL

# input Entry CC(CCc1ccccc1)NCC(O)c1ccc(O)c(C(N)=O)c1 (stereo not given) : reported ABSOLUTE LYMPHOCYTE = ?
# output 13654.17 CELLS/uL

# input Which measured ABSOLUTE LYMPHOCYTE value corresponds to CN1CCN(C(=O)OC2c3nccnc3C(=O)N2c2ccc(Cl)cn2)CC1 (stereo not given) ?
# output 12090.17 CELLS/uL

# input Name the recorded ABSOLUTE LYMPHOCYTE for `CC(C)(S)[C@@H](N)C(=O)O` .
# output 7802.17 CELLS/uL

# input Quick check: ABSOLUTE LYMPHOCYTE of `CC1(C)S[C@@H]2[C@H](NC(=O)[C@H](N)c3ccc(O)cc3)C(=O)N2[C@H]1C(=O)O` ?
# output 14357 CELLS/uL

====

Consider the following compounds and their measured LYMPHOCYTE readings.
# Organism: Rattus norvegicus
# measurement notes: DrugMatrix - Regimen: Daily Repeat
# Type: toxicity, organism-based, Sprague-Dawley
# Parameters: regimen Daily Repeat, gender Male, age 6-8 weeks
# conditions used: in vivo, po, 0 mg/kg, 120 h, tissue Blood, route oral GAVAGE, dose level Control, time 5 day, vehicle .5 % CMC
Numbers only here, please. The scale is %.

[[record]]
compound = "CC[C@H]1OC(=O)[C@H](C)[C@@H](O[C@H]2C[C@@](C)(OC)[C@@H](O)[C@H](C)O2)[C@H](C)[C@@H](O[C@@H]2O[C@H](C)C[C@H](N(C)C)[C@H]2O)[C@](C)(O)C[C@@H](C)/C(=N\\OCOCCOC)[C@H](C)[C@@H](O)[C@]1(C)O [ROXITHROMYCIN]"
readout_value = 80.83

[[record]]
compound = "O=C1CCc2cc(OCCCCc3nnnn3C3CCCCC3)ccc2N1 [CILOSTAZOL]"
readout_value = 82.57


As a next step, examine the compound that follows.
# input compound: O=c1[nH]cc(F)c(=O)[nH]1 [FLUOROURACIL] ; wanted: its LYMPHOCYTE
# output 89

Data provenance is ChEMBL document CHEMBL3885881.
